Data credit: BindingDB's records for doi:10.1038/350614a0

Below are compounds with their Ki as measured on D(1B) dopamine receptor (Homo sapiens, UniProt P21918).
Sequence (P21918 whole entry): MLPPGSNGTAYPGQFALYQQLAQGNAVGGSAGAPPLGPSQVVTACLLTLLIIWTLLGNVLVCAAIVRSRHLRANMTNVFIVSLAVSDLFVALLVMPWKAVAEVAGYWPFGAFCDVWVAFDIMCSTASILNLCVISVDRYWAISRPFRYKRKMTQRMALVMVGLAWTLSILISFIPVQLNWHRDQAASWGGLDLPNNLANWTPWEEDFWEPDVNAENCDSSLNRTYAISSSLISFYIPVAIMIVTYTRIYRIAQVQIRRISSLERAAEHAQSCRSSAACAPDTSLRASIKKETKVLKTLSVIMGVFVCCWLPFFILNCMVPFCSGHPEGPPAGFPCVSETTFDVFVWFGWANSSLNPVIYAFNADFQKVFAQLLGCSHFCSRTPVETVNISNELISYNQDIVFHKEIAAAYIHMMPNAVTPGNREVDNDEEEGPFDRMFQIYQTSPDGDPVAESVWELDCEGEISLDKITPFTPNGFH

// query Fill blank: measured Ki of the compound NCCc1c[nH]c2ccc(O)cc12 [[3H]-5-HT] is ____.
// result 3000 nM

// query Request: CCCN(CCc1cccs1)C1CCc2c(O)cccc2C1 (stereo unspecified)
// result 986 nM

// query Let us now turn to NCC(O)c1ccc(O)c(O)c1 (stereo not drawn) [Noradrenaline,(+)]
// result > 10000 nM

// query Moving on to CCC(C)C1C(=O)N2CCCC2C2(O)OC(NC(=O)C3C=C4c5cccc6[nH]cc(c56)CC4N(C)C3)(C(C)C)C(=O)N12 (stereo unspecified) [NSC_161309]
// result 113 nM

// query Can you handle CSc1ccc2c(c1)N(CC[C@@H]1CCCCN1C)c1ccccc1S2 next?
// result 300 nM

// query Next up: CC(C)C[C@H]1C(=O)N2CCC[C@H]2[C@]2(O)O[C@](NC(=O)[C@@H]3C=C4c5cccc6[nH]c(Br)c(c56)C[C@H]4N(C)C3)(C(C)C)C(=O)N12 [Bromocriptine+ (GTP+)]
// result 454 nM
